The origin of these recorded values is patent US20120316071A1.

Here the recorded ELISA Signal-blank (100 nM Fab) is given for each entry.
# MEASURED ON: T1, Recombinant Human DLL4 (human, UniProt Q9NR61 27-524)
# T1 construct: also called delta-like protein 4; rHuman DLL4
# PROTOCOL DESCRIPTION: ELISA, DLL4 coated on plate, Fab at 100 nM, absorbance at 450 nm minus blank
Give the figure only, with no unit attached.

Fab VH5-51_IGHD5-18*01>3_IGHJ4*01 G100K/G104T G24T/S28R/G35V (H:KT TRV) & V3-4_IGLJ1*01 S32A (Fab, V domains shown, Fab; expressed in E. coli with CH1 (Plasmid A, His6 and Flag tags) and lambda CL (Plasmid E); also called H:KT TRV & S32A) VH: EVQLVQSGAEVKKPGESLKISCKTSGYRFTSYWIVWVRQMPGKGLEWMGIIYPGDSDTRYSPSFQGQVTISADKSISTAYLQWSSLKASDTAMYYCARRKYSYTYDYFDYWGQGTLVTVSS VL: QTVVTQEPSFSVSPGGTVTLTCGLSSGSVSTAYYPSWYQQTPGQAPRTLIYSTNTRSSGVPDRFSGSILGNKAALTITGAQADDESDYYCVLYMGSGISYVFGTGTKVTVL :: 0.502
Fab VH5-51_IGHD5-18*01>3_IGHJ4*01 G100K/G104T G24T/S28R/G35V (H:KT TRV) & V3-4_IGLJ1*01 G23A (Fab, V domains shown, Fab; expressed in E. coli with CH1 (Plasmid A, His6 and Flag tags) and lambda CL (Plasmid E); also called H:KT TRV & G23A) VH: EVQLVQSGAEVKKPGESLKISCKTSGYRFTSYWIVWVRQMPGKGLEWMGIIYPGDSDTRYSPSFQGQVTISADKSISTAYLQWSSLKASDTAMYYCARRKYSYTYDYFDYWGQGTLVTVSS VL: QTVVTQEPSFSVSPGGTVTLTCALSSGSVSTSYYPSWYQQTPGQAPRTLIYSTNTRSSGVPDRFSGSILGNKAALTITGAQADDESDYYCVLYMGSGISYVFGTGTKVTVL :: 0.405
Fab VH5-51_IGHD5-18*01>3_IGHJ4*01 G100K/G104T G24T/S28R/G35V (H:KT TRV) & V3-4_IGLJ1*01 S28A (Fab, V domains shown, Fab; expressed in E. coli with CH1 (Plasmid A, His6 and Flag tags) and lambda CL (Plasmid E); also called H:KT TRV & S28A) VH: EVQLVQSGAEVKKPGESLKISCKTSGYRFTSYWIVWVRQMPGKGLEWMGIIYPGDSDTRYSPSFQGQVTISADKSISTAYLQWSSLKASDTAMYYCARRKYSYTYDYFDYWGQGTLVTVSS VL: QTVVTQEPSFSVSPGGTVTLTCGLSSGAVSTSYYPSWYQQTPGQAPRTLIYSTNTRSSGVPDRFSGSILGNKAALTITGAQADDESDYYCVLYMGSGISYVFGTGTKVTVL :: 0.478
Fab VH5-51_IGHD5-18*01>3_IGHJ4*01 G100K/G104T G24T/S28R/G35V (H:KT TRV) & V3-4_IGLJ1*01 S36A (Fab, V domains shown, Fab; expressed in E. coli with CH1 (Plasmid A, His6 and Flag tags) and lambda CL (Plasmid E); also called H:KT TRV & S36A) VH: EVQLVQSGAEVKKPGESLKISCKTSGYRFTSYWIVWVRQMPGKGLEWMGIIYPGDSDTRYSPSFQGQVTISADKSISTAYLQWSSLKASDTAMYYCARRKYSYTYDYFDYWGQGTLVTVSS VL: QTVVTQEPSFSVSPGGTVTLTCGLSSGSVSTSYYPAWYQQTPGQAPRTLIYSTNTRSSGVPDRFSGSILGNKAALTITGAQADDESDYYCVLYMGSGISYVFGTGTKVTVL :: 0.38

Please turn your attention to the following entry.
Need ELISA Signal-blank (100 nM Fab), item Fab VH5-51_IGHD5-18*01>3_IGHJ4*01 G100K/G104T G24T/S28R/G35V (H:KT TRV) & V3-4_IGLJ1*01 T78L (Fab, V domains shown, Fab; expressed in E. coli with CH1 (Plasmid A, His6 and Flag tags) and lambda CL (Plasmid E); also called H:KT TRV & T78L) VH: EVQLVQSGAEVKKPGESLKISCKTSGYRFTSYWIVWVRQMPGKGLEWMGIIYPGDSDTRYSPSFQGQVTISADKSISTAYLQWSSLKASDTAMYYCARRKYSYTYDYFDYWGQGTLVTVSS VL: QTVVTQEPSFSVSPGGTVTLTCGLSSGSVSTSYYPSWYQQTPGQAPRTLIYSTNTRSSGVPDRFSGSILGNKAALTILGAQADDESDYYCVLYMGSGISYVFGTGTKVTVL
0.347
